Hey, just so you know, these numbers are from ChEMBL document CHEMBL1124414.

# Test system: Canis familiaris
# assayOverview: Compound was tested for cardiotonic activity after intravenous administration of 12.5 ug/Kg to anesthetized dogs
# Assay type: functional, Canis lupus familiaris
measuredParameter: Increase in dP/dt max (%)
Numbers only, in %.

Worked set:
In [3]: df
Out[3]:
                                smilesstr     targetofassay      measuredparameter  reportedmeasurement
0  Cc1cc(-n2cnc(C(F)(F)F)c2)cc2ccc(O)nc12  Canis familiaris  Increase in dP/dt max                   82
1           Cc1cc(-n2cncc2C)cc2ccc(O)nc12  Canis familiaris  Increase in dP/dt max                   55
2  Cc1cn(-c2cc(C)c3[nH]c(=O)ccc3c2)c(C)n1  Canis familiaris  Increase in dP/dt max                   40

Lookup: Value lookup for Increase in dP/dt max; key = Cc1cc(-n2ccnc2C)cc2ccc(O)nc12
Found: 50

----------
# System: Canis familiaris
# assayOverview: Compound was tested for cardiotonic activity after intravenous administration of 25 ug/Kg to anesthetized dogs
# Format: functional, Canis lupus familiaris
measuredParameter: Increase in dP/dt max (%)
One number for each entry, in %.

                                   molecule  unitabbrev  reportedmeasurement
0              Cc1cc(-n2cncn2)cc2ccc(O)nc12           %                   67
1              Cc1cc(-n2cnnn2)cc2ccc(O)nc12           %                  117
2  Cc1[nH]c(=O)c(C#N)cc1-c1ccncc1 [MILRINONE]           %                   46

Proceeding to the next molecule to report its Increase in dP/dt max.
Lookup: Value lookup for Increase in dP/dt max; key = Cc1cc(-n2ccnc2)cc2ccc(O)nc12
Found: 139

----------
Answer each item with its documented Decrease in QA interval.
# System: Canis familiaris
# assayOverview: Compound was examined for effects on cardiac contractility to decrease in QA interval after oral administration of 0.25 mg/Kg to conscious dogs for 3h
# Type: functional, Canis lupus familiaris, Heart

                        smilesstr  reportedmeasurement
0  Cc1[nH]c(=O)c(C#N)cc1-c1ccncc1                 7 ms

Could you tell me Decrease in QA interval for each of these compounds? They are listed below.
1. Cc1cc(-n2ccnc2)cc2ccc(O)nc12
2. Cc1cc(-n2cnnc2)cc2ccc(O)nc12
3. Cc1cc(-n2cnnn2)cc2ccc(O)nc12
4. Cc1cn(-c2cc(C)c3[nH]c(=O)ccc3c2)c(C)n1

Found:
15 ms
17 ms
16 ms
17 ms
